Provenance of the data: PubChem BioAssay (NCI)

assay: NCI Yeast Anticancer Drug Screen. Data for the sgs1 mgt1 strain (AID 161);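 also: 0% = growth of cultures given vehicle only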; conditions: S. cerevisiae sgs1 mgt1 strain, at 50.0 µM, hits give high values
This is part of a sample that, as a whole, favours compounds with a hit. Of some 79,000 tested, about 15% had one in any assay.
Readout type: growth inhibition (%)
Numbers only, in %.

Study these solved cases before continuing.
# Compound, growth inhibition / %
data = [
    ("CNC(=O)OCCCCCCCCCCOC(=O)NC", 6.2),
    ("CCOC(=O)C[N+]1(C)CCC(O)CC1 (centres undefined)", -2.55),
    ("COC(=O)C1(CC(=O)C(c2ccccc2)c2ccccc2)NC(=S)NC(=O)C1C#N (centres undefined)", -12.8),
    ("CC1=NN(c2cccc([N+](=O)[O-])c2)C(=O)C1", 10.7),
    ("CC(=O)OCC1OC(n2cnc(C(N)=S)c2N)C(OC(C)=O)C1OC(C)=O (centres undefined)", 11.4),
    ("C=CCN(CC=C)c1nc(N)c2ccc(Cl)cc2n1", -6.65),
    ("O=C(CC(=O)C(F)(F)F)c1ccc2c(c1)Cc1ccccc1-2", 3.75),
    ("CC1OC2(CC(OCc3ccccc3)C1OCc1ccccc1)OCCO2 (centres undefined)", -8.7),
    ("CCc1n[nH]c(=O)n1N1C(=O)C2CCCCC2C1=O (centres undefined)", 35.1),
    ("O=S(=O)(CCl)Nc1ccncc1", -25.6),
]

Please look at the items below and tell me growth inhibition for each one, in order.
1. COc1ccc(-c2cc(-c3cc(C)cc(Br)c3O)no2)cc1
2. Cc1cc(=O)oc2cc(OC(=O)Nc3ccc(F)c([N+](=O)[O-])c3)ccc12

1: -10.8; 2: 27.1

Please look at the items below and tell me growth inhibition for each one, in order.
1. CC1=CCCC(C)(C)C1/C=C\C(C)=N\Nc1ccc([N+](=O)[O-])cc1[N+](=O)[O-] (centres undefined)
2. CC1CSC(C)C(=O)N1 (centres undefined)

[-12.3, -5.75]

###

assay: NCI Yeast Anticancer Drug Screen. Data for the mlh1 rad18 strain (AID 175); conditions: S. cerevisiae mlh1 rad18 strain growth inhibition; at 50.0 µM; hits give high values
This is part of a sample that, as a whole, favours compounds with a hit. Of some 79,000 tested, about 15% had one in any assay.
Exercise: state measured growth inhibition for each of the molecules provided.
Give bare numbers, in %.

Study these solved cases before continuing.
# Molecule, Readout type, Reading unit, Assay value
rows = [
    ("Cc1cccc2nc(-c3ccccn3)n(CCc3ccccn3)c12", "growth inhibition", "%", 17.2),
    ("CC(C)(/C=N\\O)NO", "growth inhibition", "%", -0.9),
    ("C=C(C)C1Cc2c(cc(O)c3c(=O)c4c(oc23)C(O)Oc2cc(OC)c(OC)cc2-4)O1 (stereo not drawn)", "growth inhibition", "%", 16.9),
]

Please look at the items below and tell me growth inhibition for each one, in order.
1. NC(=O)Cc1ccncc1
2. CSSC(SSC)C(SSC)SSC
3. CC1CCCCN1Cc1ccccc1COC(=O)c1cccc(Br)c1 (stereo not drawn)
4. CCOC(=O)c1ccc(NC(=O)Oc2ccc(SC)cc2)cc1
5. CC(C)COC1=CC(=O)c2ccccc2C1=O
6. O=C(COc1ccc(Cl)c(Cl)c1)NCc1cccc(Cl)c1
7. CC1(C)OC2OC(CNC(=O)c3ccccc3)C(O)C2O1 (stereo not drawn)
8. CCCCCCCCCCCCCCCC[N+](C)(C)CC#CCCl

[1.55, 47.8, 2.4, 6.9, -7, 30.9, -18.8, 48.8]

Please look at the items below and tell me growth inhibition for each one, in order.
1. Cc1cccc(CCSCCc2cccc(C)[n+]2[O-])[n+]1[O-]
2. CC(C)CCCC(C)[C@H]1CC[C@H]2[C@@H]3CC[C@H]4C[C@@H](CCC=C(c5cc(Cl)c(O)c(C(=O)OC(C)C)c5)c5cc(Cl)c(O)c(C(=O)OC(C)C)c5)CC[C@]4(C)[C@H]3CC[C@]12C (stereo partly drawn)

1. 1.8
2. -32.5
